Test system: E. coli
method: In vitro activity (MIC) against E. coli (Table 7)
Format: cell-based
condition.info: Escherichia coli
Each entry below carries its recorded MIC.

Reference set (2 entries):
molecule.smiles: CCC(C)(C)C(=O)OCOC(=O)N(CC(=O)Nc1cc(N(C)C)c2c(c1O)C(=O)C1=C(O)[C@]3(O)C(=O)C(C(N)=O)=C(O)[C@@H](N(C)C)[C@@H]3C[C@@H]1C2)C(C)(C)C
metric: MIC
recorded.result: > 64 µg/mL
--
molecule.smiles: CN(C)c1cc(NC(=O)CN(C(=O)OCOC(=O)CC2CCCC2)C(C)(C)C)c(O)c2c1C[C@H]1C[C@H]3[C@H](N(C)C)C(O)=C(C(N)=O)C(=O)[C@@]3(O)C(O)=C1C2=O
metric: MIC
recorded.result: > 64 µg/mL

Continue with the next compound.
[in] Give the measured MIC of CN(C)c1cc(NC(=O)CN(C(=O)OCOC(=O)C2CCCCC2)C(C)(C)C)c(O)c2c1C[C@H]1C[C@H]3[C@H](N(C)C)C(O)=C(C(N)=O)C(=O)[C@@]3(O)C(O)=C1C2=O .
[out] > 64 µg/mL

----------
Test system: E. coli
method: Range of MIC for E. coli strains
condition.info: Escherichia coli, read-out: Range of MIC, E. coli (Water)
metric: MIC

Reference set (3 entries):
molecule.smiles: CN(C)c1cc(NC(=O)CN(C(=O)OCOC(=O)CC2CCCCC2)C(C)(C)C)c(O)c2c1C[C@H]1C[C@H]3[C@H](N(C)C)C(O)=C(C(N)=O)C(=O)[C@@]3(O)C(O)=C1C2=O
target.under.test: E. coli
recorded.result: 16 µg/mL
--
molecule.smiles: CN(C)c1cc(NC(=O)CN(C(=O)OCOC(=O)C(c2ccccc2)c2ccccc2)C(C)(C)C)c(O)c2c1C[C@H]1C[C@H]3[C@H](N(C)C)C(O)=C(C(N)=O)C(=O)[C@@]3(O)C(O)=C1C2=O
target.under.test: E. coli
recorded.result: > 64 µg/mL
--
molecule.smiles: CN(C)c1cc(NC(=O)OCOC(=O)CC2CCCC2)c(O)c2c1C[C@H]1C[C@H]3[C@H](N(C)C)C(O)=C(C(N)=O)C(=O)[C@@]3(O)C(O)=C1C2=O
target.under.test: E. coli
recorded.result: > 64 µg/mL

[in] Enter reported MIC observed with E. coli for CCCN(CC(=O)Nc1cc(N(C)C)c2c(c1O)C(=O)C1=C(O)[C@]3(O)C(=O)C(C(N)=O)=C(O)[C@@H](N(C)C)[C@@H]3C[C@@H]1C2)C(=O)OCOC(=O)c1ccc(C(C)(C)C)cc1
[out] > 64 µg/mL

[in] Enter reported MIC observed with E. coli for CN(C)c1cc(NC(=O)CN(C(=O)OCOC(=O)C2CCCCC2)C(C)(C)C)c(O)c2c1C[C@H]1C[C@H]3[C@H](N(C)C)C(O)=C(C(N)=O)C(=O)[C@@]3(O)C(O)=C1C2=O
[out] 32 to 64 µg/mL

----------
Each entry below carries its recorded MIC.
System: E. coli GC 4559
method: MIC, broth microdilution
condition.info: Escherichia coli, GC4559, E. coli GC 4559; Water pre-incubation

Reference set (2 entries):
molecule: CCCCN(CC(=O)Nc1cc(N(C)C)c2c(c1O)C(=O)C1=C(O)[C@]3(O)C(=O)C(C(N)=O)=C(O)[C@@H](N(C)C)[C@@H]3C[C@@H]1C2)C(=O)OCOC(=O)c1ccc(F)cc1 [Example 4]
target.under.test: E. coli GC 4559
metric: MIC
recorded.result: > 64 µg/mL

molecule: CCCN(CC(=O)Nc1cc(N(C)C)c2c(c1O)C(=O)C1=C(O)[C@]3(O)C(=O)C(C(N)=O)=C(O)[C@@H](N(C)C)[C@@H]3C[C@@H]1C2)C(=O)OCc1ccccc1 [Example 14]
target.under.test: E. coli GC 4559
metric: MIC
recorded.result: > 64 µg/mL

[in] Give the measured MIC of CCCCN(CC(=O)Nc1cc(N(C)C)c2c(c1O)C(=O)C1=C(O)[C@]3(O)C(=O)C(C(N)=O)=C(O)[C@@H](N(C)C)C3CC1C2)C(=O)OCOC(=O)c1ccc(C)cc1 (stereo partly drawn) [Example 3] .
[out] > 64 µg/mL

----------
Tested on: E. coli
method: Range of MIC for E. coli strains
condition.info: Escherichia coli, 20 h, read-out: Range of MIC, E. coli (Mouse Serum)
metric: MIC

Reference set (5 entries):
compound: CCCCCCC(=O)OCOC(=O)N(CCCC)CC(=O)Nc1cc(N(C)C)c2c(c1O)C(=O)C1=C(O)[C@]3(O)C(=O)C(C(N)=O)=C(O)[C@@H](N(C)C)[C@@H]3C[C@@H]1C2
MIC: 0.5 to 2 µg/mL

compound: CN(C)c1cc(NC(=O)CN(C(=O)OCOC(=O)C23CC4CC(CC(C4)C2)C3)C(C)(C)C)c(O)c2c1C[C@H]1C[C@H]3[C@H](N(C)C)C(O)=C(C(N)=O)C(=O)[C@@]3(O)C(O)=C1C2=O
MIC: 0.5 to 4 µg/mL

compound: CCCCN(CC(=O)Nc1cc(N(C)C)c2c(c1O)C(=O)C1=C(O)[C@]3(O)C(=O)C(C(N)=O)=C(O)[C@@H](N(C)C)[C@@H]3C[C@@H]1C2)C(=O)OCOC(=O)Cc1ccccc1
MIC: 0.5 to 2 µg/mL

compound: CN(C)c1cc(NC(=O)CN(C(=O)OCOC(=O)c2cccc3ccccc23)C(C)(C)C)c(O)c2c1C[C@H]1C[C@H]3[C@H](N(C)C)C(O)=C(C(N)=O)C(=O)[C@@]3(O)C(O)=C1C2=O
MIC: 0.5 to 1 µg/mL

compound: CCCCN(CC(=O)Nc1cc(N(C)C)c2c(c1O)C(=O)C1=C(O)[C@]3(O)C(=O)C(C(N)=O)=C(O)[C@@H](N(C)C)C3CC1C2)C(=O)OCOC(=O)C(C)C (some centres unmarked)
MIC: 0.5 to 1 µg/mL

[in] Give the measured MIC of CCCN(CC(=O)Nc1cc(N(C)C)c2c(c1O)C(=O)C1=C(O)[C@]3(O)C(=O)C(C(N)=O)=C(O)[C@@H](N(C)C)[C@@H]3C[C@@H]1C2)C(=O)OCOC(=O)C(C)(C)CC .
[out] 2 to 4 µg/mL

[in] Give the measured MIC of CCCN(CC(=O)Nc1cc(N(C)C)c2c(c1O)C(=O)C1=C(O)[C@]3(O)C(=O)C(C(N)=O)=C(O)[C@@H](N(C)C)C3CC1C2)C(=O)OCc1oc(=O)oc1-c1ccc(OC)cc1 (some centres unmarked) .
[out] 0.25 to 1 µg/mL

[in] Give the measured MIC of CN(C)c1cc(NC(=O)CN(C(=O)OCOC(=O)c2ccccc2C(F)(F)F)C(C)(C)C)c(O)c2c1C[C@H]1C[C@H]3[C@H](N(C)C)C(O)=C(C(N)=O)C(=O)[C@@]3(O)C(O)=C1C2=O .
[out] 4 to 8 µg/mL

----------
Test system: E. coli
method: Range of MIC for E. coli strains
condition.info: Escherichia coli, 20 h, read-out: Range of MIC, E. coli (Mouse Serum)
metric: MIC

Reference set (3 entries):
compound: CN(C)c1cc(NC(=O)CN(C(=O)OCOC(=O)CCC2CCCCC2)C(C)(C)C)c(O)c2c1C[C@H]1C[C@H]3[C@H](N(C)C)C(O)=C(C(N)=O)C(=O)[C@@]3(O)C(O)=C1C2=O
target.under.test: E. coli
recorded.result: 0.5 to 2 µg/mL

compound: CN(C)c1cc(NC(=O)CN(C(=O)OCOC(=O)c2cc3ccccc3[nH]2)C(C)(C)C)c(O)c2c1C[C@H]1C[C@H]3[C@H](N(C)C)C(O)=C(C(N)=O)C(=O)[C@@]3(O)C(O)=C1C2=O
target.under.test: E. coli
recorded.result: 0.5 to 1 µg/mL

compound: CCCCN(CC(=O)Nc1cc(N(C)C)c2c(c1O)C(=O)C1=C(O)[C@]3(O)C(=O)C(C(N)=O)=C(O)[C@@H](N(C)C)[C@@H]3C[C@@H]1C2)C(=O)OCOC(=O)C1CCC1
target.under.test: E. coli
recorded.result: 0.5 to 2 µg/mL

[in] Give the measured MIC of CCCCN(CC(=O)Nc1cc(N(C)C)c2c(c1O)C(=O)C1=C(O)[C@]3(O)C(=O)C(C(N)=O)=C(O)[C@@H](N(C)C)[C@@H]3C[C@@H]1C2)C(=O)OCOC(=O)CC1CCCC1 .
[out] 0.5 to 4 µg/mL

[in] Give the measured MIC of Cc1cc(C)cc(C(=O)OCOC(=O)N(CC(=O)Nc2cc(N(C)C)c3c(c2O)C(=O)C2=C(O)[C@]4(O)C(=O)C(C(N)=O)=C(O)[C@@H](N(C)C)[C@@H]4C[C@@H]2C3)C(C)(C)C)c1 .
[out] 1 to 2 µg/mL

----------
System: S. typhimurium GC 2172
method: MIC, broth microdilution
condition.info: Salmonella enterica, TYPHIMURIUM, S. typhimurium GC 2172; Mouse Serum pre-incubation
Each entry below carries its recorded MIC.

Reference set (2 entries):
compound: CCCCN(CC(=O)Nc1cc(N(C)C)c2c(c1O)C(=O)C1=C(O)[C@]3(O)C(=O)C(C(N)=O)=C(O)[C@@H](N(C)C)C3CC1C2)C(=O)OCOC(=O)c1ccc(OC)cc1 (stereo partly drawn)
target.under.test: S. typhimurium GC 2172
MIC: > 64 µg/mL
--
compound: CCCN(CC(=O)Nc1cc(N(C)C)c2c(c1O)C(=O)C1=C(O)[C@]3(O)C(=O)C(C(N)=O)=C(O)[C@@H](N(C)C)[C@@H]3C[C@@H]1C2)C(=O)OCC
target.under.test: S. typhimurium GC 2172
MIC: > 64 µg/mL

Continue with the next compound.
[in] Give the measured MIC of CCCN(CC(=O)Nc1cc(N(C)C)c2c(c1O)C(=O)C1=C(O)[C@]3(O)C(=O)C(C(N)=O)=C(O)[C@@H](N(C)C)[C@@H]3C[C@@H]1C2)C(=O)OCC(C)C .
[out] > 64 µg/mL
